# experimental conditions: in ethanol, 293.15 K
metric name: solubility (mole fraction)
Enter the number alone.

Quick check: solubility (mole fraction) of `Clc1ncnc2[nH]ccc12` ?
0.0131

* * *

# experimental conditions: in THF, 303.15 K
metric name: solubility (mole fraction)

Quick check: solubility (mole fraction) of `Clc1ncnc2[nH]ccc12` ?
0.0699

* * *

# experimental conditions: in THF, 308.15 K
metric name: solubility (mole fraction)

Quick check: solubility (mole fraction) of `Clc1ncnc2[nH]ccc12` ?
0.0757

* * *

# experimental conditions: in n-hexane, 288.15 K
metric name: solubility (mole fraction)
Enter the number alone.

Quick check: solubility (mole fraction) of `Clc1ncnc2[nH]ccc12` ?
0.000652

* * *

# experimental conditions: in acetonitrile, 283.15 K
metric name: solubility (mole fraction)
Enter the number alone.

Quick check: solubility (mole fraction) of `Clc1ncnc2[nH]ccc12` ?
0.00277

* * *

# experimental conditions: in THF, 278.15 K
metric name: solubility (mole fraction)
Enter the number alone.

Quick check: solubility (mole fraction) of `Clc1ncnc2[nH]ccc12` ?
0.0461

* * *

# experimental conditions: in acetonitrile, 313.15 K
metric name: solubility (mole fraction)
Enter the number alone.

Quick check: solubility (mole fraction) of `Clc1ncnc2[nH]ccc12` ?
0.00881

* * *

# experimental conditions: in n-heptane, 303.15 K
metric name: solubility (mole fraction)
Enter the number alone.

Quick check: solubility (mole fraction) of `Clc1ncnc2[nH]ccc12` ?
0.00187

* * *

# experimental conditions: in THF, 313.15 K
metric name: solubility (mole fraction)
Enter the number alone.

Quick check: solubility (mole fraction) of `Clc1ncnc2[nH]ccc12` ?
0.0818

* * *

# experimental conditions: in ethanol, 313.15 K
metric name: solubility (mole fraction)
Enter the number alone.

Quick check: solubility (mole fraction) of `Clc1ncnc2[nH]ccc12` ?
0.0225

* * *

# experimental conditions: in n-butanol, 303.15 K
metric name: solubility (mole fraction)
Enter the number alone.

Quick check: solubility (mole fraction) of `Clc1ncnc2[nH]ccc12` ?
0.0227

* * *

# experimental conditions: in THF, 283.15 K
metric name: solubility (mole fraction)
Enter the number alone.

Quick check: solubility (mole fraction) of `Clc1ncnc2[nH]ccc12` ?
0.0501

* * *

# experimental conditions: in ethyl acetate, 303.15 K
metric name: solubility (mole fraction)
Enter the number alone.

Quick check: solubility (mole fraction) of `Clc1ncnc2[nH]ccc12` ?
0.0246

* * *

# experimental conditions: in ethyl acetate, 293.15 K
metric name: solubility (mole fraction)
Enter the number alone.

Quick check: solubility (mole fraction) of `Clc1ncnc2[nH]ccc12` ?
0.0194

* * *

# experimental conditions: in ethyl acetate, 308.15 K
metric name: solubility (mole fraction)
Enter the number alone.

Quick check: solubility (mole fraction) of `Clc1ncnc2[nH]ccc12` ?
0.0274

* * *

# experimental conditions: in n-butanol, 278.15 K
metric name: solubility (mole fraction)
Enter the number alone.

Quick check: solubility (mole fraction) of `Clc1ncnc2[nH]ccc12` ?
0.0122

* * *

# experimental conditions: in n-butanol, 323.15 K
metric name: solubility (mole fraction)
Enter the number alone.

Quick check: solubility (mole fraction) of `Clc1ncnc2[nH]ccc12` ?
0.0354

* * *

# experimental conditions: in methanol, 283.15 K
metric name: solubility (mole fraction)
Enter the number alone.

Quick check: solubility (mole fraction) of `Clc1ncnc2[nH]ccc12` ?
0.00781
